molecular target: Mutant CD33-GFP JS24 (Q24E) on 293FT cells (UniProt P20138); assay: FACS, mutant CD33-GFP on 293FT cells
Sequence (P20138 18-364 Q24E): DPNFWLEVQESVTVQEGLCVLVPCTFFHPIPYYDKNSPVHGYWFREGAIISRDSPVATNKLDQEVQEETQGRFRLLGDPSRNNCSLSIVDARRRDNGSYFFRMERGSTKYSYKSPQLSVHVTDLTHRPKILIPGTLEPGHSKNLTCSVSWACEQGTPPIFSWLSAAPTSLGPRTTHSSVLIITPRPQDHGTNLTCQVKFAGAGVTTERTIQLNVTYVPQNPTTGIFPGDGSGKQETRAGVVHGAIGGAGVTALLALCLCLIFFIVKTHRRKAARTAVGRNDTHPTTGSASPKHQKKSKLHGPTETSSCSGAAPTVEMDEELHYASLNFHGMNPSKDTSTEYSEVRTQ
REPORTED_PROPERTY: FACS binding data
The answer should be written as a number, with no unit following it.

Observe how each entry below is paired with its result.
- BINDER: "sdCD33_10 (VHH) VHH: QVQLVETGGGLVRAGGSLRLSCAASGRTADIYNIGWFRQAPGKEREFVAAITWIGRTPYYADAVKGRFAFSTDSAKNTVSLQMDNLKPEDTGVYYCNAAHYLEGNTDYYWGQGTQVTVSS"
  MEASUREMENT: 98.2
- BINDER: "sdCD33_4 (VHH) VHH: QVKLEESGGGSVQAGESLRLSCTASGITFRDYDIDWYRQAPGKEREWLATITPSGTTHYPDSVKGRATISRDSAKNTVYLQMNSLKPEDTARYECNTLAYWGSGTQVTVSS"
  MEASUREMENT: 99.3
- BINDER: "sdCD33_9 (VHH, sdAb from a naive llama phage library; also called 426; sdAb426) VHH: QVKLEESGGGLVRAGGSLRLSCAASGGTFSTYAMAWFRQAPGKEREFVAAITWGGGSTYYEDSVKGRFTISRDNAKNTGVLQMNNLDVDDTAVYYCYAFGRSRAGDANGDYWGQGTQVTVSS"
  MEASUREMENT: 99.4
- BINDER: "sdCD33_6 (VHH, sdAb from a naive llama phage library; also called 416; sdAb416) VHH: EVQLVESGGGLVQPRGSLRLSCVVSGSMSSIYSMSWYRQPPGKQRELVAHITTTGTTNYIDSVKGRFTISIDNDINVIYLQMNTLKPEDTAVYYCNAGLKAGPGPRLDYWGLGTQVTVSS"
  MEASUREMENT: 98.6
- BINDER: "sdCD33_11 (VHH, sdAb from a naive llama phage library; also called 430; sdAb430) VHH: AVQLVESGGGLVQAGGSLRLSCAASGDTFANYAMGWFRQAPGKEREFVAAISWSDSSTHYADSVKGRFTIPRDNAKNAVYLQMDQLKPEDMAVYYCYAYIRGVGEVRYVDYWGQGTQVTVSS"
  MEASUREMENT: 99.6

# next binder below
Query: Identify measured FACS binding data associated with sdCD33_3 (VHH) VHH: DVQLVESGGGLVQPGGSLRLSCSVSGNIDRFYAMGWYRQAPGKQRELVAQLTNNEITTYGDSVEGQFSISGDFDANTVYLQMDSLKPEDTAVYYCHAHVTTTRWSQDYYWGQGTRVTVSS
Result: 99.4
